- Test system: A498 renal
- assay: NCI tumour cell line growth inhibition, 48 h
Give TGI for every item shown.

Here is how some compounds turned out for TGI.
compound: CC1OC(OC2C(OC(=O)[C@]34CCC(C)(C)C[C@H]3C3=CC[C@@H]5[C@@]6(C)CC[C@H](OC7OC(CO)C(O)C(O)C7OC7OC(CO)C(O)C(O)C7O)C(C)(C)[C@@H]6CC[C@@]5(C)[C@]3(C)CC4)OCC(O)C2O)C(O)C(O)C1OC1OCC(O)C(O)C1O (stereo partly drawn)
study.system: A498 renal
test.value: 6.06 µM
//
compound: N#CC1(CCCCl)CCCCC1
study.system: A498 renal
test.value: > 100 µM
//
compound: CC(C)c1ccc2c(c1)CCC1C2CCCC1(C)NCc1ccccc1 (stereo not drawn)
study.system: A498 renal
test.value: 24.5 µM
//
compound: COC(=O)C(C)NP(=O)(OCc1cccc(Cn2cnc3c(N)ncnc32)c1)Oc1ccccc1 (stereo not drawn)
study.system: A498 renal
test.value: > 100 µM
//
compound: CCOC(=O)C#Cc1c(C(=O)OCC)nnn1[C@@H]1O[C@H](COC)[C@@H](OC)[C@H]1OC
study.system: A498 renal
test.value: 32.9 µM

Dear colleague, could you please provide TGI for the compounds listed below?
1. O/N=C1/C(=C/c2ccc(OCc3ccccc3)cc2)CCCC1C(NO)c1ccc(OCc2ccccc2)cc1 (stereo not drawn)
2. COC(=O)/C(=N\N)C(C(=O)C(=O)Nc1cc(Cl)ccc1Cl)c1nc2ccc([N+](=O)[O-])cc2[nH]c1=O (stereo not drawn)
3. COC(=O)C1CC2CC1C1C2SC(F)(F)C1(F)F (stereo not drawn)

> 100 µM
> 100 µM
> 100 µM

---

- System: MDA-MB-231 breast
- assay: NCI tumour cell line growth inhibition, 48 h; in the data active = GI50 below about 0.43 µM; inactive = the rest
# valid calls are 1 (yes) = active, 0 (no) = inactive; nothing else

Completed entries (count: 5):
compound: N#CC1=C(N)Oc2c(ccc3ccccc23)C1c1cc2ccccc2n2nnnc12 (centres undefined)
assigned.label: 0 (no)

compound: COC(=O)C(C)NP(=O)(OCc1cccc(Cn2cnc3c(N)ncnc32)c1)Oc1ccccc1 (centres undefined)
assigned.label: 0 (no)

compound: FC(F)(F)c1cccc(CNC2CCN(CCc3ccccc3)CC2)c1
assigned.label: 0 (no)

compound: Cc1cnc2[nH]c(-c3cccc4ccccc34)cc(=O)c2c1
assigned.label: 1 (yes)

compound: C/C(=C\c1csc(C)n1)[C@@H]1C[C@@H]2O[C@]2(C)CCC[C@H](C)[C@H](O)[C@@H](C)C(=O)C(C)(C)[C@@H](O)CC(=O)N1
assigned.label: 1 (yes)

Please let me know the test result on file for COc1ccc(-n2c(=O)c3ccccc3n(Cc3ccc(C(=O)NO)cc3)c2=O)cc1 .
0 (no)

Please let me know the test result on file for CCOC(=O)c1c(Cl)c2c(n1Cc1ccccc1)-c1oncc1CCC2 .
0 (no)

Please let me know the test result on file for OCc1ccc(N2CCc3ccc(F)cc3C2)cc1Cl .
0 (no)

Please let me know the test result on file for CN(C)c1ccc(/C=N/N=C(\C#N)[S][Sn]([Cl])([c]2ccccc2)[c]2ccccc2)cc1 .
0 (no)

---

Give TGI for every item shown.
- Tested on: SK-MEL-2 melanoma
- assay: NCI tumour cell line growth inhibition, 48 h

Here is how some molecules turned out for TGI.
molecule: CCc1nc(N)nc(N)c1-c1ccc(N2CCOCC2)c(N=[N+]=[N-])c1
study.system: SK-MEL-2 melanoma
test.value: > 100 µM

molecule: Nc1ccc2c(=S)c3ccccc3[nH]c2c1
study.system: SK-MEL-2 melanoma
test.value: > 100 µM

Okay, now this molecule:
Reported TGI of NC(CCC(=O)O)C(=O)NC(Cc1ccc(N(CCCl)CCCl)cc1)C(=O)O (stereo not drawn) : > 100 µM

---

Give TGI for every item shown.
- System: MOLT-4 leukemia
- assay: NCI tumour cell line growth inhibition, 48 h

Here is how some compounds turned out for TGI.
compound: CCOC(=O)C1(C)CCC(C(=O)OC)C1=O (stereo unspecified)
test.value: > 100 µM
--
compound: Cc1ccc2c(=O)cc(-c3cc(C)sc3C)[nH]c2n1
test.value: > 77.6 µM
--
compound: Cc1cc2nnn(C3CCCCO3)c2cc1C (stereo unspecified)
test.value: > 100 µM
--
compound: O=[N+]([O-])c1ccc2c3c1[C@@H]1O[C@@H]1c1cccc(c1-3)[C@@H]1O[C@H]21
test.value: > 100 µM
--
compound: O=C(O)CCC(NC(=O)c1ccc(Nc2nc3ccc(C(F)(F)F)cc3nc2C(=O)O)cc1)C(=O)O (stereo unspecified)
test.value: > 100 µM

Okay, now this compound:
Reported TGI of O=c1c2sc3ccccc3sc=2c(=O)c2c(Cl)c(Cl)c(Cl)c(Cl)c12 : > 100 µM

---

- Tested on: OVCAR-3 ovarian
- assay: NCI tumour cell line growth inhibition, 48 h
Give TGI for every item shown.

Here is how some compounds turned out for TGI.
smiles.string: COc1ccc([C@@H]2[C@@H](Oc3ccccc3)C(=O)N2c2cc(OC)c(OC)c(OC)c2)cc1F
TGI: > 100 µM
//
smiles.string: CC1=N/C(=C\c2ccc(C)cc2)C(=O)O1
TGI: > 100 µM

Dear colleague, could you please provide TGI for the compounds listed below?
1. COC(=O)[C@@H]1Cc2ccc(OC)c(c2)OCCC(=O)N1
2. CCCCCNC(=O)CCCCCCCCCCCNC(=O)CCCCCCCCCCN1C=CC(=CC=C2C=CC(=O)C=C2)C=C1
3. S=c1[nH]nc(Cn2c3ccc(Br)cc3c3nc4ccccc4nc32)o1
4. C/C(=C\c1csc(C)n1)[C@@H]1C[C@@H]2O[C@]2(C)CCC[C@H](C)[C@H](O)[C@@H](C)C(=O)C(C)(C)[C@@H](O)CC(=O)N1
5. COc1ccc2cc3n(c(=O)c2c1)CCc1c-3cc(OC)c(OC)c1OC

["> 100 µM", "> 100 µM", "> 73.7 µM", "0.000377 µM", "> 100 µM"]

Dear colleague, could you please provide TGI for the compounds listed below?
1. Cc1[nH]c(=O)c2oc3cc4ccccc4cc3c2c1C(=O)O
2. CC(C)(C)n1c(=O)n2c(-c3ccccc3)c(-c3ccccc3)n2c1=O
3. C#CCCCCCC(=O)N[C@H]1C=C[C@@H]2/C=C(C)/C=C/[C@@H](C)[C@H]([C@H](C)[C@H](O)[C@@H](C)NC(C)=O)OC(=O)/C=C/C=C(C)\C=C\[C@]2(C)C1
4. COc1ccc(NC(=S)c2ccc([N+](=O)[O-])o2)cc1
5. CN(/N=C/c1ccccn1)C1=NCCN1
6. COc1cc(/C=C/C(=O)c2nc3cc(F)ccc3nc2C)cc(OC)c1OC

["> 10 µM", "> 100 µM", "> 40 µM", "4.42 µM", "> 100 µM", "> 28.1 µM"]

---

- Test system: NCI-H460 lung
- assay: NCI tumour cell line growth inhibition, 48 h
Give TGI for every item shown.

smiles.string: S=c1[nH]nc(Cn2c3ccc(Br)cc3c3nc4ccccc4nc32)o1
study.system: NCI-H460 lung
TGI: > 100 µM
//
smiles.string: O=c1c(Oc2ccc(F)cc2F)cc2cnc(NC3CCOCC3)nc2n1C1CC1
study.system: NCI-H460 lung
TGI: > 25 µM

Okay, now this molecule:
Reported TGI of COc1cc(/C=C/c2cc(/C=C/c3ccc(O)c(OC)c3)n(C(=O)Nc3ccc(C)cc3)n2)ccc1O : 1.86 µM

---

Give GI50 for every item shown.
- Test system: ACHN renal
- assay: NCI tumour cell line growth inhibition, 48 h

smiles.string: COc1ccc(Cn2c(Br)c3c(c2-c2cc(OC)c(OC)c(OC)c2)CCc2sc(N)nc2-3)cc1
GI50: 1070 nM
//
smiles.string: CN(C)c1ccc(/C=N/N=C(\C#N)[S][Sn]([Cl])([c]2ccccc2)[c]2ccccc2)cc1
GI50: 1720 nM

Per the reported ACHN renal data, COc1cc2c(cc1OCCN1CCN(CCN3C(=O)c4cccc5cccc(c45)C3=O)CC1)N=C[C@@H]1CCCN1C2=O has GI50 of 17200 nM

---

Give TGI for every item shown.
- Test system: UACC-257 melanoma
- assay: NCI tumour cell line growth inhibition, 48 h

Here is how some molecules turned out for TGI.
molecule: O=C1[C@H](Cc2ccc(O)cc2)N2C(=O)CCN(C(=O)NCc3ccccc3)[C@H]2CN1Cc1cccc2ccccc12
TGI: 23.9 µM
//
molecule: COc1cc(/C=C/C(=O)c2nc3cc(F)ccc3nc2C)cc(OC)c1OC
TGI: > 100 µM
//
molecule: CC1(c2ccc(Cl)cc2)C=C(c2ccc(Cl)cc2)C(C#N)=C(C(C#N)C#N)N1 (configuration not stated)
TGI: 37.3 µM
//
molecule: Cc1cc2nnn(C3CCCCO3)c2cc1C (configuration not stated)
TGI: > 100 µM
//
molecule: Cc1nn(C(=O)Cc2ccccc2)c2c1C(c1ccc(/C=C/c3ccccc3)cc1)SC(N)=N2 (configuration not stated)
TGI: > 100 µM

Dear colleague, could you please provide TGI for the molecules listed below?
1. COC(=O)C1=C(O)C(C(=O)OC)[C@@]2(O)[C@@H](C(=O)OC)[C@H](C)C[C@@H]1[C@@H]2C(=O)OC (some centres not stated)
2. CCOC(=O)c1cn(-c2ccc([N+](=O)[O-])cc2)c(=S)n2c1nc1ccccc12
3. COC(=O)c1c(C)cccc1C1CN=NC12Cc1cc(C)c(C)cc1C2=O (configuration not stated)
4. OCc1ccc(N2CCc3ccc(F)cc3C2)cc1Cl
5. Cc1[nH]c(=O)c2oc3cc4ccccc4cc3c2c1C(=O)O

["> 100 µM", "> 100 µM", "> 100 µM", "0.101 µM", "> 10 µM"]

Dear colleague, could you please provide TGI for the molecules listed below?
1. COC(=O)C(C)NP(=O)(OCc1cccc(Cn2cnc3c(N)ncnc32)c1)Oc1ccccc1 (configuration not stated)
2. C/C(=C\c1csc(C)n1)[C@@H]1C[C@@H]2O[C@]2(C)CCC[C@H](C)[C@H](O)[C@@H](C)C(=O)C(C)(C)[C@@H](O)CC(=O)N1

> 100 µM
0.000277 µM
